Target: Mitogen-activated protein kinase 8 (Homo sapiens)
Sequence (P45983 whole entry): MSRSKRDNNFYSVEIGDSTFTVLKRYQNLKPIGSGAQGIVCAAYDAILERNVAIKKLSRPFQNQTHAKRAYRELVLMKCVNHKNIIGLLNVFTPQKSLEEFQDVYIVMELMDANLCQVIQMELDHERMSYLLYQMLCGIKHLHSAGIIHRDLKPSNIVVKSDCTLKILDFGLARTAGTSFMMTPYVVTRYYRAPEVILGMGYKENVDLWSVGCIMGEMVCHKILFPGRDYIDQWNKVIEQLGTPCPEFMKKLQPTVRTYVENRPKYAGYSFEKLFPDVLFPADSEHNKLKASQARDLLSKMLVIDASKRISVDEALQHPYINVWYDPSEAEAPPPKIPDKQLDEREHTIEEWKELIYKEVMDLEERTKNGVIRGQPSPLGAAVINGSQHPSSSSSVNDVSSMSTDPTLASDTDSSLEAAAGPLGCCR
Assay: Inhibition of JNK1 using ATF2 substrate by TR-FRET assay
Measured metric: IC50

Fill in: IC50 of Ac-RPTTLNL-OH is ___
≥ 50 µM
